Test system: SARS-CoV-2 spike protein (wild-type) on VSV pseudovirus (SARS-CoV-2), P0DTC2
Reported IC90 (pVNT, GFP-positive infected cells) values follow for various binders
The answer is to be given in µg/ml; state only the numeric part.

P043.A.00097.B02 (antibody) heavy chain: QELVESGGGLVQAGESLKLSCKASGIDFSSYGISWVRQAPGKGLEWIAYIYPGFGITNYANSVKGRFTISSDNAQNTVFLQMTSLTASDTATYFCTRAYASSSGYYIHYFNLWGPGTLVTVSS light chain: AIQMTQSPSSLAASVGDTVTITCKASEDIGYGLNWYQQKLGIAPKLLIYGANTLESGVPSRFSGSGSETDYTLTISSVQAEDAGIYYCQQAYSTPLTFGAGTKVEIK	24.2

The binder P043.A.00024.C11 (protein sample ID 451) (antibody, V domains shown) VH: QSVEESGGRLVTPGTPLTLTCTVSGFSLSSYAMSWVRQAPGKGLEWIGIISSSGTTYYASWAKGPFTISKTSTTVDLKITSPTTEDTATYFCARGGAGYGYAHYYGMDPWGPGTLVTVSS VL: AIQMTQSPSSLAASVGDTVTITCKASEDIGYGLNWYQQKLGIAPKLLIYGANTLESGVPSRFSGSGSETDYTLTISSVQAEDAGIYYCQQGYSTPLTFGAGTKVEIK showed IC90 (pVNT, GFP-positive infected cells) equal to 20.6

The binder P043.A.00023.E05 (antibody) heavy chain: QSLEESGGRLVTPGTPLTLTCTVSGFSLSSYAMSWVRQAPGKGLEWIGIISSSGSTYYASWAKGRFTISKTSTTVDLKITSPTTEDTATYFCARDASSRGYYYYYGMDPWGPGTLVTVSS light chain: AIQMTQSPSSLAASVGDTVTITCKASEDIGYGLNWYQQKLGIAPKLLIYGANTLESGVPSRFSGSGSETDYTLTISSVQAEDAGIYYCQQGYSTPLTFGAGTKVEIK showed IC90 (pVNT, GFP-positive infected cells) equal to 16.6
